Test system: ragweed
method-description: Test C postemergence
Format: in vivo, Ambrosia elation
condition-set: postemergence; 125 g ai/ha; scale 0 to 100, 0 no effect, 100 complete control
In this section we review reported Plant response rating, Ragweed values for a set of molecules.
# answer = number (no unit)

For ragweed, provide Plant response rating, Ragweed of CCCc1cc(C(=O)NCC(F)(F)F)nn1Cc1cc(C(F)(F)F)nn1C please. 50

Please tell me: Plant response rating, Ragweed of CCCc1cc(C(=O)NCC)nn1Cc1ccnc(C(F)(F)F)c1 , system ragweed? 50

Report Plant response rating, Ragweed for CCc1cc(C(=O)NC2CC2)nn1Cc1ccnc(OC(F)F)c1 tested on ragweed. 75

Lookup: Plant response rating, Ragweed / ragweed / CCCNC(=O)c1cc(CCC)n(Cc2cc(C(F)(F)F)nn2C)n1 55

Please provide the recorded Plant response rating, Ragweed for CCOc1cc(C(=O)NC2CC2)nn1Cc1ccnc(OC(F)F)c1 , tested on ragweed. 75

Given the entry CCCc1cc(C(=O)NOCC)nn1Cc1ccnc(C(F)(F)F)c1 , what Plant response rating, Ragweed was observed with ragweed? 40

Record lookup: for ragweed, what Plant response rating, Ragweed belongs to CCCNC(=O)c1cc(CC)n(Cc2ccnc(OC(F)F)c2)n1 ? 55
